Provenance of the data: ChEMBL document CHEMBL5058577

# System: HEK-293T
# experimental_protocol: Multiplex assay against HEK293T
# Format: toxicity, cell-based
# particulars: human, 12 h, 1 µM, compound concentration 1 uM, replicate 2
Exercise: state measured Total Cell Count for each of the molecules provided.
Give bare numbers.

INSERT INTO results (molecule, assay_result) VALUES
  ('CCC(=O)OCC(=O)[C@@]1(OC(=O)CC)[C@@H](C)C[C@H]2[C@@H]3CCC4=CC(=O)C=C[C@]4(C)[C@@]3(Cl)[C@@H](O)C[C@@]21C [BECLOMETHASONE DIPROPIONATE]', 356),
  ('Cc1cc(-c2ccc3c(c2)CC[C@H]3N2CC3(CCN(C(=O)Cc4cn5cc(C)sc5n4)CC3)C2)ncn1', 258);

Batch request: Total Cell Count for each of the following molecules.
1. COC(c1ccccc1)(c1ccccc1)[C@H](Oc1nc(C)cc(C)n1)C(=O)O
2. O=c1nc2[nH]c3ccccc3nc-2c(=O)[nH]1

result:
[326, 345]
